System: PC12 cells
assayComment: MTT toxicity (safety evaluation) on PC12 nerve cells
Assay type: cell-based
appliedConditions: PC12, 3.75 μM, 48 h
measurementLabel: Rank (cytotoxicity standard) 48 h

>>> recordednumber("COc1cc(/C=C2\\CN(C(C)C)C/C(=C\\c3cc(Cl)c(O)c(OC)c3)C2=O)cc(Cl)c1O")
2
>>> recordednumber("COc1cc(/C=C2\\CN(C)C/C(=C\\c3cc(Cl)c(O)c(OC)c3)C2=O)cc(Cl)c1O")
1
>>> recordednumber("CC(C)N1C/C(=C\\c2cc(Cl)c(O)c(Cl)c2)C(=O)/C(=C/c2cc(Cl)c(O)c(Cl)c2)C1")
0
>>> recordednumber("CCN1C/C(=C\\c2cc(Cl)c(O)c(Cl)c2)C(=O)/C(=C/c2cc(Cl)c(O)c(Cl)c2)C1")
1
>>> recordednumber("O=C1/C(=C/c2cc(Cl)c(O)c(Cl)c2)CNC/C1=C\\c1cc(Cl)c(O)c(Cl)c1")
1
>>> recordednumber("COc1cc(/C=C2\\CNC/C(=C\\c3cc(Cl)c(O)c(OC)c3)C2=O)cc(Cl)c1O")
0
>>> recordednumber("CN1C/C(=C\\c2cc(Cl)c(O)c(Cl)c2)C(=O)/C(=C/c2cc(Cl)c(O)c(Cl)c2)C1")
1
